# target_or_system: S. cerevisiae PDC (Saccharomyces cerevisiae)
# Construct: purchased Sigma
# Sequence (P06169 2-563 limits assumed): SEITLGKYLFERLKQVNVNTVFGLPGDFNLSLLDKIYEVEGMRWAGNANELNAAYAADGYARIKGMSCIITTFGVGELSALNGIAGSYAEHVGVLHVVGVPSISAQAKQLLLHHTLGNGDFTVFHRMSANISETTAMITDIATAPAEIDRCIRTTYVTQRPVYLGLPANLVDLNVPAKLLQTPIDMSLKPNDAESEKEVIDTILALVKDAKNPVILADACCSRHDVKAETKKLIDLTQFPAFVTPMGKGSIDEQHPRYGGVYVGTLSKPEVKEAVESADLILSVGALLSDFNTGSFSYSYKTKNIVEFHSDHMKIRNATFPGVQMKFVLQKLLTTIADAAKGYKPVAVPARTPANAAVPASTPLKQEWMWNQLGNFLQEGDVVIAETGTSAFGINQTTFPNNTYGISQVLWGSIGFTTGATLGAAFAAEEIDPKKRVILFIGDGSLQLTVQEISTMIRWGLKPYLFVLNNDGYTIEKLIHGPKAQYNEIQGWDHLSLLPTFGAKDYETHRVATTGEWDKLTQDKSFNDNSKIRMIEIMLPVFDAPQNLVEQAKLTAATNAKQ
# experimental_details: S. cerevisiae PDC inhibitory activity assay (DCPIP reduction)
# Type: biochemical
# particulars: [Compound] = 1.5 mM, [ThDP] = 0.3 mM; compounds insufficiently soluble were excluded; read-out: Inhibition (%) Yeast PDC
endpoint: inhibition at 1500 µM (%)
Respond with the bare value in %.

>>> obs_value("COc1ccccc1C(=O)NCCc1cn(Cc2cnc(C)nc2N)nn1 [Compound 22a]")
61
>>> obs_value("COc1cccc(C(=O)NCCc2cn(Cc3cnc(C)nc3N)nn2)c1 [Compound 21a]")
48
>>> obs_value("Cc1ncc(Cn2cc(CCO)nn2)c(N)n1 [Compound 9a]")
37

What value of inhibition at 1500 µM has been recorded for this entry: COc1cccc(C(=O)NCCCc2cn(Cc3cnc(C)nc3N)nn2)c1 [Compound 21b]
38

And for Cc1ncc(Cn2cc(CCC(=O)NO)nn2)c(N)n1 [Compound 24a] ?
41

And for Cc1ncc(Cn2cc(CCCCC(=O)NO)nn2)c(N)n1 [Compound 24c] ?
63

----------
Recorded inhibition at 250 µM by entry
# target_or_system: UniProt P0AFG3
# Sequence (P0AFG3 1-933): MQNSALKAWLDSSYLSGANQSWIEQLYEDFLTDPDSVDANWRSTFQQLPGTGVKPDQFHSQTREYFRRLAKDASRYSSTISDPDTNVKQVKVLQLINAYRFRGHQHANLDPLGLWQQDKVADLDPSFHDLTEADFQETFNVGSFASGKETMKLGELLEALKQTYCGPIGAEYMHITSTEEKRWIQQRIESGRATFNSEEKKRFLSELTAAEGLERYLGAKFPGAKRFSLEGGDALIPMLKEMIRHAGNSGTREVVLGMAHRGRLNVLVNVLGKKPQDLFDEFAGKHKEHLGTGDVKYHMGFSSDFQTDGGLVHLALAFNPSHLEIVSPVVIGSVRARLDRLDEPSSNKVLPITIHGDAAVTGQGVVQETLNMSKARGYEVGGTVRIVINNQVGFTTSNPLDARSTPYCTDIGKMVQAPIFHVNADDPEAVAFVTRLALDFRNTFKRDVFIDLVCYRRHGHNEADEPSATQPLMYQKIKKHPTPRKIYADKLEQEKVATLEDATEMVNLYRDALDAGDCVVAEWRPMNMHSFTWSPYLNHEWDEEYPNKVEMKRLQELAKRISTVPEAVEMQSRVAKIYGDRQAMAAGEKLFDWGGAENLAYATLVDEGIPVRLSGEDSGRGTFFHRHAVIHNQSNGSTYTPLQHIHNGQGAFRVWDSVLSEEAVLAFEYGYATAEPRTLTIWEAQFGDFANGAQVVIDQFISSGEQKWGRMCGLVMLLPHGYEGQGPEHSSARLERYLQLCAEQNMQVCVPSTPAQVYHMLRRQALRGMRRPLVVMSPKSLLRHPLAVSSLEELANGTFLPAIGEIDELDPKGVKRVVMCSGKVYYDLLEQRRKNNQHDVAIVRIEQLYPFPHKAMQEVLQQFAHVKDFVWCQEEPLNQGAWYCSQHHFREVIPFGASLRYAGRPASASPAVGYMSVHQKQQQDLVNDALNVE
# experimental_details: E. coli OGDHc E1 inhibitory activity assay (DCPIP reduction)
# Type: biochemical
# particulars: [Compound] = 250 μM, [ThDP] = 50 μM
Respond with the bare value in %.

Examples with answers:
>>> obs_value("Cc1ncc(C[n+]2csc(CCO[P@@](=O)(O)OP(=O)(O)O)c2C)c(O)n1 [OxThDP 7b, oxythiamine diphosphate, reference compound]")
62
>>> obs_value("Cc1ncc(Cn2cc(CCCCC(=O)Nc3ccccc3N)nn2)c(N)n1 [Compound 26c]")
30
>>> obs_value("COc1ccccc1C(=O)NCCCc1cn(Cc2cnc(C)nc2N)nn1 [Compound 22b]")
56

Proceeding to the next molecule to report its inhibition at 250 µM.
What value of inhibition at 250 µM has been recorded for this entry: COc1cccc(C(=O)NCCc2cn(Cc3cnc(C)nc3N)nn2)c1 [Compound 21a]
63

----------
# experimental_details: in vitro
# Type: cell-based, human
# particulars: human
Lab note: cut-off is 50 µM. Strictly less in IC50 at 96 h is Met. Exactly 50 µM or more is Not met.

>>> answer_label("Cc1ncc(Cn2cc(CCCC(=O)NO)nn2)c(N)n1 [Compound 24b]")
"Met"
>>> answer_label("Cc1ncc(Cn2cc(CCCn3cc(-c4ccc(F)cc4)nn3)nn2)c(N)n1 [Compound 16b]")
"Not met"
>>> answer_label("Cc1ncc(Cn2cc(CCCCn3cc(-c4ccc(F)cc4)nn3)nn2)c(N)n1 [Compound 16c]")
"Met"
>>> answer_label("COc1ccc(-c2cn(CCc3cn(Cc4cnc(C)nc4N)nn3)nn2)cc1 [Compound 17a]")
"Not met"
>>> answer_label("COc1ccc(-c2cn(CCCCc3cn(Cc4cnc(C)nc4N)nn3)nn2)cc1 [Compound 17c]")
"Met"

I'd appreciate it if you could check whether COc1ccc(-c2cn(CCCc3cn(Cc4cnc(C)nc4N)nn3)nn2)cc1 [Compound 17b] has IC50 at 96 h smaller than 50 µM.
Not met

And for Cc1ncc(Cn2cc(CCCCC(=O)NO)nn2)c(N)n1 [Compound 24c] ?
Met

----------
# target_or_system: porcine PDHc E1 (Sus scrofa)
# Sequence (P29804 30-389): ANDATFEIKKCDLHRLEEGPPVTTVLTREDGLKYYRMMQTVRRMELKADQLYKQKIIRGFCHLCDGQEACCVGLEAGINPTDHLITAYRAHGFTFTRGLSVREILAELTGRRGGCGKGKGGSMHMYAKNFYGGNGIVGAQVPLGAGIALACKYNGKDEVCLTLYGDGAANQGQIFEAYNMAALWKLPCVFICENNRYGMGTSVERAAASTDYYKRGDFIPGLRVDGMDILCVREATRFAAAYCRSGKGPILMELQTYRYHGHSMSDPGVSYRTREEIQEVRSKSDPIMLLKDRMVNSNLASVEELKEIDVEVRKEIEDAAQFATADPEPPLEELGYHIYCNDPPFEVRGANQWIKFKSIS
endpoint: Ki (nM)
Respond with the bare value in nM.

What value of Ki has been recorded for this entry: COc1ccc(-c2cn(CCCCc3cn(Cc4cnc(C)nc4N)nn3)nn2)cc1 [Compound 17c]
30

----------
Measured Ki on E. coli OGDHc E1 (Escherichia coli, UniProt P0AFG3) follows.

>>> obs_value("Cc1ncc(Cn2cc(CCCC(=O)NO)nn2)c(N)n1 [Compound 24b]")
"2020 nM"

Proceeding to the next molecule to report its Ki.
What value of Ki has been recorded for this entry: Cc1ncc(Cn2cc(CCCCC(=O)NO)nn2)c(N)n1 [Compound 24c]
1460 nM

----------
# target_or_system: E. coli OGDHc E1 (Escherichia coli, UniProt P0AFG3)
# experimental_details: E. coli OGDHc E1 inhibitory activity assay (DCPIP reduction)
# Assay type: biochemical
# particulars: [Compound] = 250 μM, [ThDP] = 50 μM
Class Criterion met: inhibition at 250 µM at least 60%. Class Criterion not met: inhibition at 250 µM below 60%.

Does the reported inhibition at 250 µM for Cc1ncc(Cn2cc(CCCCC(=O)NO)nn2)c(N)n1 [Compound 24c] fall at or above the 60% mark?
Criterion met

And for Cc1ncc(Cn2cc(CCn3cc(-c4ccccc4)nn3)nn2)c(N)n1 [Compound 15a] ?
Criterion not met

And for COc1cccc(C(=O)NCCCc2cn(Cc3cnc(C)nc3N)nn2)c1 [Compound 21b] ?
Criterion not met

And for Cc1ncc(Cn2cc(CCCCO)nn2)c(N)n1 ?
Criterion not met

And for Cc1ncc(Cn2cc(CCn3cc(-c4ccc(F)cc4)nn3)nn2)c(N)n1 [Compound 16a] ?
Criterion not met

And for Cc1ncc(Cn2cc(CCC(=O)Nc3ccccc3N)nn2)c(N)n1 [Compound 26a] ?
Criterion met

And for Cc1ncc(Cn2cc(CCNS(=O)(=O)C(F)(F)F)nn2)c(N)n1 [Compound 18a] ?
Criterion not met

And for Cc1ncc(Cn2cc(CCCCn3cc(-c4ccc(F)cc4)nn3)nn2)c(N)n1 [Compound 16c] ?
Criterion not met

And for Cc1ncc(Cn2cc(CCO)nn2)c(N)n1 ?
Criterion not met

----------
# Tested on: P. falciparum 3D7 expressing PfTPK-GFP
# experimental_details: Anti-plasmodial activity, 3D7 expressing PfTPK-GFP
# Format: cell-based
# particulars: Plasmodium falciparum, 3D7, read-out: IC50 anti-plasmodial activity, PfTPK-GFP
endpoint: pIC50
# reply with the number alone; pIC50 is -log10 of concentration in mol/L

>>> obs_value("COc1ccc(-c2cn(CCCCc3cn(Cc4cnc(C)nc4N)nn3)nn2)cc1 [Compound 17c]")
4.36

What value of pIC50 has been recorded for this entry: Cc1ncc(Cn2cc(CCCC(=O)NO)nn2)c(N)n1 [Compound 24b]
5.70

----------
# target_or_system: E. coli OGDHc E1 (Escherichia coli)
# experimental_details: E. coli OGDHc E1 inhibitory activity assay (DCPIP reduction)
# Format: biochemical
# particulars: [Compound] = 250 μM, [ThDP] = 50 μM
Class y: inhibition at 250 µM at least 50%. Class n: inhibition at 250 µM below 50%.

Example cases with answers are listed next.
>>> answer_label("COc1ccccc1C(=O)NCCc1cn(Cc2cnc(C)nc2N)nn1 [Compound 22a]")
"y"
>>> answer_label("Cc1ncc(Cn2cc(CCCNS(=O)(=O)C(F)(F)F)nn2)c(N)n1 [Compound 18b]")
"n"
>>> answer_label("Cc1ncc(Cn2cc(CCC(=O)NO)nn2)c(N)n1 [Compound 24a]")
"y"
>>> answer_label("Cc1ncc(Cn2cc(CCNC(=O)c3cccc(C#N)c3)nn2)c(N)n1 [Compound 20a]")
"n"
>>> answer_label("Cc1ncc(Cn2cc(CCCCn3cc(-c4ccccc4)nn3)nn2)c(N)n1 [Compound 15c]")
"n"
>>> answer_label("COc1ccc(-c2cn(CCc3cn(Cc4cnc(C)nc4N)nn3)nn2)cc1 [Compound 17a]")
"n"

Does the reported inhibition at 250 µM for Cc1ncc(Cn2cc(CCCCNS(=O)(=O)C(F)(F)F)nn2)c(N)n1 [Compound 18c] fall at or above the 50% mark?
y

And for Cc1ncc(Cn2cc(CCCC(=O)NO)nn2)c(N)n1 [Compound 24b] ?
y

And for Cc1ncc(Cn2cc(CCOC(=O)c3cccc(-c4noc(C(F)(F)F)n4)c3)nn2)c(N)n1 [Compound 13a] ?
n

And for COc1cccc(C(=O)NCCCCc2cn(Cc3cnc(C)nc3N)nn2)c1 [Compound 21c] ?
n

And for COc1ccc(-c2cn(CCCCc3cn(Cc4cnc(C)nc4N)nn3)nn2)cc1 [Compound 17c] ?
n

And for Cc1ncc(Cn2cc(CCOC(=O)c3cccc(C#N)c3)nn2)c(N)n1 [Compound 14a] ?
n

And for COc1ccc(-c2cn(CCCc3cn(Cc4cnc(C)nc4N)nn3)nn2)cc1 [Compound 17b] ?
n

And for Cc1ncc(Cn2cc(CCCn3cc(-c4ccccc4)nn3)nn2)c(N)n1 [Compound 15b] ?
n

And for Cc1ncc(Cn2cc(CCCC(=O)Nc3ccccc3N)nn2)c(N)n1 [Compound 26b] ?
y

And for Cc1ncc(Cn2cc(CCNC(=O)c3cccc(-c4noc(C(F)(F)F)n4)c3)nn2)c(N)n1 [Compound 19a] ?
n

And for COc1ccccc1C(=O)NCCCCc1cn(Cc2cnc(C)nc2N)nn1 [Compound 22c] ?
n
